assay: in vitro; details: Sprague-Dawley, rat, plasma
Please use condition met for fraction unbound at 4 h, 10 µM under 0.3 and condition not met for everything else, ties included.

Request: Field: below-cutoff. Rule: recorded fraction unbound at 4 h, 10 µM strictly less than 0.3. Subject: C[C@H]1COc2c(N3CC4CC(F)(F)C[C@@H](N)[C@H]4C3)c(F)cc3cc(C(=O)O)c(=O)n1c23 (single isomer, unassigned)
Response: condition not met

Request: Field: below-cutoff. Rule: recorded fraction unbound at 4 h, 10 µM strictly less than 0.3. Subject: Cc1c(N2CCC(C3(N)CC3)C2)c(F)cc2cc(C(=O)O)c(=O)n(C3CC3)c12 (stereo not drawn)
Response: condition met

Request: Field: below-cutoff. Rule: recorded fraction unbound at 4 h, 10 µM strictly less than 0.3. Subject: Cc1c(N2CCC(C3(N)CC3)C2)c(F)cc2c(Cc3n[nH]c(=O)o3)cc(=O)n(C3CC3)c12 (stereo not drawn)
Response: condition met

Request: Field: below-cutoff. Rule: recorded fraction unbound at 4 h, 10 µM strictly less than 0.3. Subject: C[C@H](N)[C@@H]1CCN(c2c(F)cc3cc(C(=O)O)c(=O)n4c3c2OC[C@@H]4C)C1
Response: condition not met

Request: Field: below-cutoff. Rule: recorded fraction unbound at 4 h, 10 µM strictly less than 0.3. Subject: Cc1c(N2CCC(C3(N)CC3)C2)c(F)cc2c(CC(=O)N(C)C)cc(=O)n(C3CC3)c12 (stereo not drawn)
Response: condition not met

Request: Field: below-cutoff. Rule: recorded fraction unbound at 4 h, 10 µM strictly less than 0.3. Subject: C[C@H]1COc2c(N3CC[C@@H](C4(N)CC4)C3)c(F)cc3cc(C(=O)O)c(=O)n1c23
Response: condition not met

Request: Field: below-cutoff. Rule: recorded fraction unbound at 4 h, 10 µM strictly less than 0.3. Subject: Cc1c(N2CC[C@@H]([C@H](C)N)C2)c(F)cc2cc(C(=O)O)c(=O)n(C3CC3)c12
Response: condition not met
